# log10 of koff annotations
target of assay: T1, human PD-1-His protein (human, UniProt Q15116 25-167, limits assumed)
T1 construct: also called huPD-1; not shown: His tag
T1 sequence (Q15116 25-167 limits assumed): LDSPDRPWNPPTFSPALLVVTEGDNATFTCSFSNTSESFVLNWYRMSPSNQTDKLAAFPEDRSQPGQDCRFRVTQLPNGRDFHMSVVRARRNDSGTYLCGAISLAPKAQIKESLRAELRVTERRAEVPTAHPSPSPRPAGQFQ
protocol: SPR Biacore, Ab captured, huPD-1-His analyte
Kindly note that the scale is log10 and the underlying koff is in s⁻¹.

Solved entries (count: 5):
Request: // fetch log10 of koff given entry mAb709c (antibody, V domains shown, also called HumAb709c) VH: EVKLVESGGGLVKPGGSLKLSCAASGFTFSFYTMSWVRQTPEKRLEWVATISGGGRDTYYPDSVKGRFTISRDNAKNTLYLHMSSLRSEDTALYYCAGQGGNYLFAYWGQGTLVTVSA VL: DIVMTQSHKFMSTSVGDSVTITCKASQDVNTVVAWYQQKPGQSLKVLISWASTRHTGVPARFTGSGSGTDYTLTISSVQAEDLALYYCQQHYTTPYTFGGGTQLEIK
Result: -4.16

Request: // fetch log10 of koff given entry HumAb709-7 (antibody, human IgG1, kappa, L234A L235A, V domains shown, humanized mAb709) VH: EVQLVESGGGLVQPGGSLRLSCAASGFTFSFYTMSWVRQAPGKGLEWVATISGGGRDTYYPDSVKGRFTISRDNAKNSLYLQMNSLRAEDTAVYYCARQGGNYLFAYWGQGTLVTVSS VL: DIVMTQSPSSLSASVGDRVTITCKASQDVNTVVAWYQQKPGKAPKVLISWASTRHTGVPSRFSGSGSGTDYTLTISSLQPEDFATYYCQQHYTTPYTFGGGTKVEIKR
Result: -3.47

Request: // fetch log10 of koff given entry HumAb709-8 (antibody, human IgG1, kappa, L234A L235A, V domains shown, humanized mAb709; also called HurnAb709-8) VH: EVQLVESGGGLVQPGGSLRLSCAASGFTFSFYTMSWVRQAPGKGLEWVATISGGGRDTYYPDSVKGRFTISRDNAKNSLYLQMNSLRAEDTAVYYCAGQGGNYLFAYWGQGTLVTVSS VL: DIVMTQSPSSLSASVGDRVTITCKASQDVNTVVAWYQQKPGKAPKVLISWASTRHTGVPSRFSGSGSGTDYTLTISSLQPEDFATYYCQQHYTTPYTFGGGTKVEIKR
Result: -4.33

Request: // fetch log10 of koff given entry HumAb709-10 (antibody, human IgG1, kappa, L234A L235A, V domains shown, humanized mAb709) VH: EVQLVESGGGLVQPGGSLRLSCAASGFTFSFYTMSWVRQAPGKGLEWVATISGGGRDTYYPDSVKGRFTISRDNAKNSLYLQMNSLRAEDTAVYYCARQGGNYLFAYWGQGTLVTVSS VL: DIVMTQSPSSLSASVGDRVTITCKASQDVNTVVAWYQQKPGKAPKVLISWASTRHTGVPSRFTGSGSGTDYTLTISSLQPEDFATYYCQQHYTTPYTFGGGTKVEIKR
Result: -3.53

Request: // fetch log10 of koff given entry HumAb709-2 (antibody, human IgG1, kappa, L234A L235A, V domains shown, humanized mAb709) VH: EVQLVESGGGLVQPGGSLRLSCAASGFTFSFYTMSWVRQAPGKGLEWVATISGGGRDTYYPDSVKGRFTISRDNAKNSLYLQMNSLRAEDTAVYYCAGQGGNYLFAYWGQGTLVTVSS VL: DIQMTQSPSSLSASVGDRVTITCKASQDVNTVVAWYQQKPGKAPKLLIYWASTRHTGVPSRFSGSGSGTDYTLTISSLQPEDFATYYCQQHYTTPYTFGGGTKVEIKR
Result: -4.26

From here, focus on the item given below.
Request: // fetch log10 of koff given entry HumAb709-1 (antibody, human IgG1, kappa, L234A L235A, V domains shown, humanized mAb709) VH: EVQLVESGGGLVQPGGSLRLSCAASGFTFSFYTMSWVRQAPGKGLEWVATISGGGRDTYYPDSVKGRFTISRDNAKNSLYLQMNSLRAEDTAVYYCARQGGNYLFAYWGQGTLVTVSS VL: DIQMTQSPSSLSASVGDRVTITCKASQDVNTVVAWYQQKPGKAPKLLIYWASTRHTGVPSRFSGSGSGTDYTLTISSLQPEDFATYYCQQHYTTPYTFGGGTKVEIKR
Result: -2.67
